# assay.remarks: clinical
# setup.conditions: human, plasma, iv, 1 mg
experimental.endpoint: concentration at 1 h (ng/mL)
Give bare numbers, in ng/mL.

**Q:** Entry CCOc1cc(CC(=O)NC(CC(C)C)c2ccccc2N2CCCCC2)ccc1C(=O)O (racemic) has what concentration at 1 h?
**A:** 35.8

====

I'd be grateful if you could share measured change in vivo at 1 mg/kg for these entries.
# System: blood glucose
# assay.remarks: Test for hypoglycemic activity in fasted female rats (oral)
# Type: in vivo
# setup.conditions: Rattus norvegicus, po; 1 mg/kg, 2 h; read-out: Change in glucose content compared with control
Answers are plain numbers, in %.

[[record]]
compound = "CCOc1cc(CC(=O)NC(c2ccccc2)c2ccccc2N2CCCCC2)ccc1C(=O)O (centres unmarked)"
experimental_endpoint = "change in vivo at 1 mg/kg"
value_units = "%"
observed_result = -54

[[record]]
compound = "CCOc1cc(CC(=O)NC(C)c2ccccc2N2CCCCC2)ccc1C(=O)O (centres unmarked)"
experimental_endpoint = "change in vivo at 1 mg/kg"
value_units = "%"
observed_result = -44

[[record]]
compound = "CCOc1cc(CC(=O)NC(C(=O)OC)c2ccccc2N2CCCCC2)ccc1C(=O)O (centres unmarked)"
experimental_endpoint = "change in vivo at 1 mg/kg"
value_units = "%"
observed_result = -35


Your task in this section: give change in vivo at 1 mg/kg for each listed record.
1. CCCC(NC(=O)Cc1ccc(C(=O)O)c(OCC)c1)c1ccccc1N1CCCCC1 (centres unmarked)
2. CCOc1cc(CC(=O)NC(C(=O)OC(C)C)c2ccccc2N2CCCCC2)ccc1C(=O)O (centres unmarked)
3. CCOC(=O)C(NC(=O)Cc1ccc(C(=O)O)c(OCC)c1)c1ccccc1N1CCCCC1 (centres unmarked)
4. COc1cc(CC(=O)NC(c2ccccc2)c2ccccc2N2CCCCC2)ccc1C(=O)O (centres unmarked)
5. CCCC(NC(=O)Cc1ccc(CC#N)c(OCC)c1)c1ccccc1N1CCCCC1 (centres unmarked)
6. CCOc1cc(CC(=O)NC(c2ccccc2)c2ccccc2N2CCCCC2)ccc1CC#N (centres unmarked)
7. CCOc1cc(CC(=O)NC(c2ccccc2)c2ccc(C)cc2N2CCCCC2)ccc1C(=O)O (centres unmarked)

**A:**
[-49, -21, -17, -41, -37, -10, -41]

**Q:** For the compound shown here, COc1cc(CC(=O)NC(C)c2ccccc2N2CCCCC2)ccc1C(=O)O (centres unmarked) , give the reported change in vivo at 1 mg/kg.
**A:** -46

====

# assay.remarks: Study 2: plasma concentration, HPLC
# Type: in vivo, human
# setup.conditions: human, plasma, po, 2 mg, 2 mg capsule, 0.50 h
experimental.endpoint: concentration at 0.5 h (ng/mL)
Give bare numbers, in ng/mL.

**Q:** Which concentration at 0.5 h reading was recorded for the compound CCOc1cc(CC(=O)NC(CC(C)C)c2ccccc2N2CCCCC2)ccc1C(=O)O (racemic) ?
**A:** 44.9

====

# assay.remarks: clinical
# setup.conditions: human, plasma, po, 1 mg
experimental.endpoint: concentration at 4 h (ng/mL)
One number for each entry, in ng/mL.

**Q:** What does the record list as concentration at 4 h for CCOc1cc(CC(=O)NC(CC(C)C)c2ccccc2N2CCCCC2)ccc1C(=O)O (racemic) [AG-EE 388 ZW] ?
**A:** 8.7
